- Read-out: Monokine induced gamma interferon (MIG), CXCL9 (gene 4283)
- ASSAY_INFO: BSK_BE3C_MIG: BioMAP Diversity Plus: BE3C Assay for Monokine induced gamma interferon (MIG) Biomarker Activity (AID 2283035)
- RECORDED_CONDITIONS: primary human bronchial epithelial cells; actives raise or lower the signal
The source made the active and inactive calls. How the source made its calls: active means hit-call score of the fitted dose curve at least 0.9, where 1 is the maximum; inactive means score below 0.9.
Output constraint: value belongs to 1 for active, -1 for inactive

Could you please tell me the result logged for CCCCC(CC)COP(=O)(OCC(CC)CCCC)OCC(CC)CCCC (centres undefined) in this assay?
-1

Tell me the assay call for COC(=O)CCCC(=O)OC please.
-1

I would be grateful if you could indicate the recorded call for O=C1NC(=O)C(c2ccccc2)(c2ccccc2)N1 .
-1

Recorded call for NC=O ?
-1

Tell me the recorded outcome of this test for Cc1cc(SC2=C(O)C[C@@](CCc3ccc(N)cc3)(C(C)C)OC2=O)c(C(C)(C)C)cc1CO .
-1

Write down the call the test reported for this compound. Item: C/C=C/c1ccc(OC)cc1
-1

Returns: the outcome recorded for CC1=C(C)S(=O)(=O)CCS1(=O)=O in this assay.
-1

Entry CC(C)OC(=O)C(C)(C)Oc1ccc(C(=O)c2ccc(Cl)cc2)cc1 : call = ?
-1

What was the test verdict on CC(C)(C)c1ccccc1 ?
-1

Record lookup: outcome of this test for CCCCCCCCCCCCCCCCO ?
-1

Outcome logged for Cn1cnc2c1c(=O)[nH]c(=O)n2C in this assay:
-1

Can you look up the reported call for CN(C)CCCN1c2ccccc2Sc2ccc(Cl)cc21 for me?
1

Test call for this compound, please: NC(=Nc1ccccc1)Nc1ccccc1
-1

Write down the call the test reported for this compound. Item: CC(N)=O
-1

What call does the record list for CC(=O)CC(c1ccccc1)c1c(O)c2ccccc2oc1=O (centres undefined) ?
-1

Which outcome was assigned to CC(C)c1cccc(C(C)C)c1 in this test?
-1

What did the test return for CCc1nc(N)nc(N)c1-c1ccc(Cl)cc1 ?
-1

Look up the recorded call for CCCCCCCCCCCCCCOS(=O)(=O)O in this test.
1

Assay result, entry O=C1CCCCC1 — outcome?
-1

Answer briefly: the call reported for C=CCCCCCCCCCCCC in this assay.
-1

Please let me know the test result on file for Cc1occc(=O)c1O .
-1

Just curious, what result did O=C(NS(=O)(=O)/C=C/c1cccs1)c1ccc(F)cc1Br get here?
-1

Outcome? O=C1O[C@H]([C@H](O)CO)C(O)=C1O
-1

Recorded test call requested for CCCCCCC(C=O)=Cc1ccccc1
-1

What outcome does the record of this test show for CS(=O)(=O)c1ccc([C@@H](C[C@H]2CCC(=O)C2)C(=O)Nc2cnccn2)cc1Cl ?
-1

Could you check what this test reported for OCC(CO)n1cnc(-c2ccc(F)cc2)c1-c1ccnc(Oc2ccccc2)n1 ?
-1

What did the test return for O=NO ?
-1

Which outcome was entered for the compound CN(C)C(=O)NC1(c2ccccc2)CCN(CCC[C@]2(c3ccc(Cl)c(Cl)c3)CCCN(C(=O)c3ccccc3)C2)CC1 in this test?
-1

Check the results log: what was the call for COc1ccc(C(=O)Nc2nc3ccccc3c(NCc3ccccc3)c2C#N)cc1 ?
-1

What call does the record list for NC1CCCCC1 ?
-1

Each compound tested received a call. Report the one for Oc1ccc(O)cc1 .
-1

Assay result, entry CC(C)(O)c1ccc(CNC(=O)c2cccnc2Oc2ccc(F)cc2)cc1 — outcome?
-1

Per the records of this test, what outcome belongs to COC(=O)CCC(=O)OC ?
-1

How was CN(C)C(=O)NC1(c2ccccc2)CCN(CC[C@@]2(c3ccc(F)c(F)c3)CN(C(=O)c3ccccc3)CCO2)CC1 classified in this test?
-1

For CC(=O)S[C@H](C(=O)N[C@H]1Cc2ccccc2[C@H]2CCC[C@@H](C(=O)O)N2C1=O)C(C)C , which call appears in the assay record?
-1

What is the recorded call for this compound in the test? O=C(Oc1ccccc1)c1cccc(C(=O)Oc2ccccc2)c1
-1

What did the test return for Cc1ccc(-c2cc(C(F)(F)F)nn2-c2ccc(S(N)(=O)=O)cc2)cc1 ?
1

Given Cc1cc(Cc2ccc(N)c(C)c2)ccc1N , state the outcome it received in this test.
-1

For this compound, state the assay outcome: Cc1c(C)c2c(c(C)c1O)CCC(C)(COc1ccc(CC3SC(=O)NC3=O)cc1)O2 (centres undefined)
1

// param item: O=C(O)c1cccnc1 ; yields the recorded call
-1

How did this test come out for c1ccc2occc2c1 ?
-1

Short answer needed: outcome of this test for N[C@@H](Cc1c[nH]c2ccccc12)C(=O)O ?
-1

Hi, sorry to bother you, what did the test record for COC(=O)[C@H]1[C@H]2C[C@@H]3c4[nH]c5cc(OC)ccc5c4CCN3C[C@H]2C[C@@H](OC(=O)c2cc(OC)c(OC)c(OC)c2)[C@@H]1OC ?
-1

Returns: the outcome recorded for CCCCC(CC)COC(=O)CCCCCCCC(=O)OCC(CC)CCCC (centres undefined) in this assay.
-1

Please share the test call associated with CSc1ccc(Oc2ccc(S(N)(=O)=O)cc2CN(C)C)cc1C .
-1

Given CCCCOC(=O)CCCCC(=O)OCCCC , state the outcome it received in this test.
-1

Recorded call for Nc1nc(=S)c2[nH]cnc2[nH]1 ?
-1

Could you please tell me the result logged for CC(=O)O[C@]1(C(C)=O)CC[C@H]2[C@@H]3C=C(Cl)C4=CC(=O)[C@@H]5C[C@@H]5[C@]4(C)[C@H]3CC[C@@]21C in this assay?
1

Please share the test call associated with Oc1ccccc1O .
-1

Dear all, I need the recorded test outcome for CCCCc1nc2cccnc2n1Cc1ccc(-c2ccccc2-c2nnn[nH]2)cc1 , thank you.
-1

What classification did COc1ccc(OC(F)(F)F)cc1CN[C@H]1CCCN[C@H]1c1ccccc1 end up with in this test?
-1

What did the test return for OCC(O)CO ?
-1

Assay outcome for CCCC(=O)O : what was it?
-1

Which outcome did this test record for the compound Cc1ccc(C(C)(C)C)c(O)c1 ?
-1

====

- ASSAY_INFO: APR_HepG2_CellLoss_72hr: Apredica 72-hour HepG2 Assay for Cell Loss (AID 2282915)
- RECORDED_CONDITIONS: high-content imaging
The source made the active and inactive calls. How the source made its calls: active means hit-call score of the fitted dose curve at least 0.9, where 1 is the maximum; inactive means score below 0.9.
MEASURED_PROPERTY: AC50

Completed entries (count: 6):
> print(dat)
                                   compound      result.value
1  CC(=O)S[C@H](C(=O)N[C@H]1Cc2ccccc2[C@H]2CCC[C@@H](C(=O)O)N2C1=O)C(C)C          inactive
2  CSc1ccc(Oc2ccc(S(N)(=O)=O)cc2CN(C)C)cc1C   108 µM (active)
3                            O=C(O)c1cccnc1          inactive
4                O=C(O)CC(O)(CC(=O)O)C(=O)O          inactive
5  CCc1cc(C2=C(C(=O)O)N(c3ccccc3C(F)(F)F)S(=O)(=O)c3ccccc32)cc2c1OCO2  95.5 µM (active)
6                  O=C(O)CN(CC(=O)O)CC(=O)O          inactive

AC50 measured on O=C1NC(=O)C(c2ccccc2)(c2ccccc2)N1 = inactive

Lookup result for CCCCC(CC)COP(=O)(OCC(CC)CCCC)OCC(CC)CCCC (configuration not stated) ; measured AC50: 37.3 µM (active)

The reported value for CS(=O)(=O)c1ccc([C@@H](C[C@H]2CCC(=O)C2)C(=O)Nc2cnccn2)cc1Cl in terms of AC50 is inactive

Field AC50 (entry OCC(O)CO ) reads inactive

Reported AC50 of CC(C)OC(=O)C(C)(C)Oc1ccc(C(=O)c2ccc(Cl)cc2)cc1 : 103 µM (active)

Lab note: O=C1OC(c2ccc(O)cc2)(c2ccc(O)cc2)c2ccccc21 gave AC50 of 102 µM (active)

====

- Read-out: Vascular cell adhesion molecule 1 (VCAM1), VCAM1 (gene 7412)
- ASSAY_INFO: BSK_LPS_VCAM1: BioMAP Diversity Plus: LPS Assay for Vascular cell adhesion molecule 1 (VCAM1) Biomarker Activity (AID 2283086)
- RECORDED_CONDITIONS: primary human HUVEC with PBMC; actives raise or lower the signal
Activity calls are given as the source filed them. How the source made its calls: active means hit-call score of the fitted dose curve at least 0.9, where 1 is the maximum; inactive means score below 0.9.
A correct response names exactly one class from active, inactive

Kindly provide the recorded test outcome for the following compound: CC(C)c1cccc(C(C)C)c1
inactive

Assay outcome for O=C(N[C@@H](c1ccccc1)[C@@H]1CCCCN1)c1cccc(C(F)(F)F)c1Cl : what was it?
active

Hi, sorry to bother you, what did the test record for CC(C)COC(=O)CCCCC(=O)OCC(C)C ?
inactive

Write down the call the test reported for this compound. Item: CCCCCCCC(=O)OC
inactive

Could you kindly confirm the outcome this assay logged for CN(C)C(=O)NC1(c2ccccc2)CCN(CC[C@@]2(c3ccc(F)c(F)c3)CN(C(=O)c3ccccc3)CCO2)CC1 ?
inactive

Which outcome was assigned to CCCCC(CC)CO (stereo not given) in this test?
inactive

Test call, this compound: NCCOCCOCCN
inactive

Answer briefly: the call reported for CO[C@@H]1COCC[C@@H]1N[C@@H]1CC[C@@](C(=O)N2CCc3ncc(C(F)(F)F)cc3C2)(C(C)C)C1 in this assay.
inactive

Answer briefly: the call reported for COc1ccc(C(=O)Nc2nc3ccccc3c(NCc3ccccc3)c2C#N)cc1 in this assay.
active

// outcome(item) with item = CCCCCCCCCC[N+](C)(C)[O-]
active

What classification did Oc1ccc(O)cc1 end up with in this test?
active

I'd appreciate the recorded outcome for Cc1occc(=O)c1O from this test.
inactive

Lab log entry: COC(=O)CCC(=O)OC — outcome as called in the assay?
inactive

Which outcome was entered for the compound N[C@@H](Cc1c[nH]c2ccccc12)C(=O)O in this test?
inactive

Hi, do you know how CCCCCCC(C=O)=Cc1ccccc1 came out in this test?
active
